# Tested System: 5-HT2A receptor (Homo sapiens)
# Sequence (P28223 whole entry): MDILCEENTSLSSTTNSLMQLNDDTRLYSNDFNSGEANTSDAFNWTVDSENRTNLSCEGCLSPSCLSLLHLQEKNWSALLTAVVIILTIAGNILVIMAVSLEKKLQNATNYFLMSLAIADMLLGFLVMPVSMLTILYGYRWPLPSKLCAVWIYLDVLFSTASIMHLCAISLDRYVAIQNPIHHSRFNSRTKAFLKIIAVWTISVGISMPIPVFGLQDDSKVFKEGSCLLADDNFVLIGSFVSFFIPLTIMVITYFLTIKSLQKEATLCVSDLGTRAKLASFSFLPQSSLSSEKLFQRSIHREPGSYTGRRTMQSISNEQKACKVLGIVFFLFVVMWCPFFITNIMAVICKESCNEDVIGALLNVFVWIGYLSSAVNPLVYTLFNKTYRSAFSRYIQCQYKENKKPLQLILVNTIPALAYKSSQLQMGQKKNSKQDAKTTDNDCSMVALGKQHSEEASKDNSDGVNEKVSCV
# Assay Info: Binding to 5-HT2A receptor, [125I]-DOI, Method (c)
# Parameters: expressed in transfected cells; host or cells: CHO cell line
Where a name gives a salt, the structure may show the parent alone.
Reported Metric: pKi
Give only the number. pKi is defined as minus log10 of concentration in molar units.

Which pKi value belongs to CC(C)NC(=O)Oc1ccc(CSC(=O)N2CCNCC2)cc1 [Example 63, hydrochloride] ? 6.26

----------
# Tested System: UniProtKB P28335
# Sequence (P28335 33-458): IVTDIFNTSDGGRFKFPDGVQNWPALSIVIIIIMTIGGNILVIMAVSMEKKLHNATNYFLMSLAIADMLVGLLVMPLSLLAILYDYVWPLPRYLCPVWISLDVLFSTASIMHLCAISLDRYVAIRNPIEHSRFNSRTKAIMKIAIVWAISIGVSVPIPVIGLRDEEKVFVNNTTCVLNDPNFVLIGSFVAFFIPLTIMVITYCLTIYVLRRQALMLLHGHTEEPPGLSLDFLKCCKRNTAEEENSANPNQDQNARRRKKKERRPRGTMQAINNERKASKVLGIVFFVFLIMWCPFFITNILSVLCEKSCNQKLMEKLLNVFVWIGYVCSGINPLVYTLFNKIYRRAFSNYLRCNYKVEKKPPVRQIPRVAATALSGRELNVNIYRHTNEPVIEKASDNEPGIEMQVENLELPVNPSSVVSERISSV
# Assay Info: Binding to 5-HT2C receptor, [3H]-5-HT, Method (a)
# Set-up: expressed in transfected cells; host or cells: CHO cell line
# Method: The binding of compounds of formula (I) to serotonin receptors was determined in vitro by standard methods. The preparations were investigated in accordance with the assays given below. Method (a): For the binding to the 5-HT2C receptor, the 5-HT2C receptors were radiolabeled with [^3H]-5-HT. The affinity of the compounds for 5-HT2C receptors in a CHO cell line was determined according to the procedure of D. Hoyer, G. Engel and H. O. Kalkman, European J. Pharmacol., 1985, 118, 13–23. […]
Where a name gives a salt, the structure may show the parent alone.
Reported Metric: pKi
# pKi is unitless: minus log10 of the molar concentration; print number only

Fill blank: measured pKi of the compound CC(C)NC(=O)Oc1ccc(CSC(=O)N2CCNCC2)cc1 [Example 63, hydrochloride] is ____. 7.48
